B1: CDC25A (parent)
chain: KKFRTKSRTWAGEKSKREMYSRLK

Variants of: B1
assay.remarks: protein stability index of a GFP-peptide fusion (GPS, HEK-293T) (PSI 1-6); higher = more stable;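 note: lentivirally expressed fusions sorted by FACS into six bins by GFP to DsRed ratio, PSI derived from sequencing read proportions per bin multiplied by bin number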
conditions: c terminus: a fixed tail appended
Would you mind labelling by protein stability index? At or over 3 is fulfilled, under is not fulfilled.

>>> class_name("KKFWTKSRTWAGEKSKREMYSRLK [R4W]")
"not fulfilled"
>>> class_name("KKFRTKSRWWAGEKSKREMYSRLK [T9W]")
"not fulfilled"
>>> class_name("LKFRTKSRTWAGEKSKREMYSRLK [K1L]")
"not fulfilled"
>>> class_name("KHFRTKSRTWAGEKSKREMYSRLK [K2H]")
"not fulfilled"
>>> class_name("KKFRVKSRTWAGEKSKREMYSRLK [T5V]")
"fulfilled"
>>> class_name("KKFRTKSRTWAGEKSKREMYYRLK [S21Y]")
"not fulfilled"
>>> class_name("KKFNTKSRTWAGEKSKREMYSRLK [R4N]")
"fulfilled"
>>> class_name("KKFRTKSRTWAGESSKREMYSRLK [K14S]")
"not fulfilled"
>>> class_name("KKFRTKSRTMAGEKSKREMYSRLK [W10M]")
"fulfilled"
>>> class_name("KKFRTKSRTTAGEKSKREMYSRLK [W10T]")
"fulfilled"
